Reference for the values: the supplement of paper PMC6522484

- Test system: SW480
- experiment: TCF/Wnt firefly luciferase reporter signal relative to plate median (fraction of plate median); higher = higher Wnt reporter signal
- study conditions: 5 µM; treatment time 24 h; reporter: 7TFP
outcome measure: TCF/Wnt firefly luciferase reporter signal
Response field accepts a number only; no unit should be typed.

{"molecule": "Nc1nc(=O)c2c([nH]1)NCC(CNc1ccc(C(=O)N[C@@H](CCC(=O)O)C(=O)O)cc1)N2C=O (stereo not given in full)", "number": 1.01}
{"molecule": "CO/N=C(\\C(=O)N[C@@H]1C(=O)N2C(C(=O)OC(C)OC(C)=O)=C(COC(N)=O)CS[C@H]12)c1ccco1 (stereo not given in full)", "number": 1}
{"molecule": "Cc1ncc(CO)c(CO)c1O", "number": 0.971}
{"molecule": "CC1(C)CC[C@]2(C(=O)O)[C@H](O)C[C@]3(C)C(=CC[C@@H]4[C@@]5(C)CC[C@H](O)C(C)(C)[C@@H]5CC[C@]43C)[C@H]2C1", "number": 0.999}
{"molecule": "CC[C@@H]1C(=O)N(C)c2cnc(Nc3ccc(C(=O)N[C@H]4CC[C@H](N5CCN(CC6CC6)CC5)CC4)cc3OC)nc2N1C(C)C", "number": 1.06}
{"molecule": "CCCCC[C@H](CC(=O)O)C(=O)O", "number": 1.03}
{"molecule": "CC(C)=CCOc1cc2oc(=O)ccc2cc1O", "number": 1.07}
{"molecule": "O=C1CN2Cc3c(ccc(Cl)c3Cl)N=C2N1", "number": 0.98}

input: Give TCF/Wnt firefly luciferase reporter signal for the following molecule: `CCCOc1ccccc1-c1nc2[nH]nnc2c(=O)[nH]1`
output: 0.951

input: Please give the documented TCF/Wnt firefly luciferase reporter signal of `CC1(C)CCC[C@]2(C)[C@@H]3[C@H]1[C@@H](O)[C@@]2(C)C[C@H]3O`
output: 1.13

input: Give TCF/Wnt firefly luciferase reporter signal for the following molecule: `CCCCC(=O)N(Cc1ccc(-c2ccccc2-c2nnn[nH]2)cc1)[C@H](C(=O)O)C(C)C`
output: 0.919

input: Assign TCF/Wnt firefly luciferase reporter signal to the following record: `NC(=O)N(CCc1ccccc1)CCc1ccccc1`
output: 0.946

input: Recall and state the measured TCF/Wnt firefly luciferase reporter signal for `O=C(O)c1ccc2c(c1)OCO2` .
output: 0.866

---

- System: DLD1
- experiment: cell viability (CellTiter-Glo) relative to plate median (fraction of plate median); higher = more viable cells
- study conditions: 5 µM; treatment time 24 h; reporter: 7TFP
# cell viability values compiled below
I'd appreciate a reply containing only the number, no unit.

input: Entry `COc1c2ccoc2cc2oc(C)cc(=O)c12` needs its cell viability filled in; supply it.
output: 0.967

---

- System: DLD1
- experiment: cell viability (CellTiter-Glo) relative to plate median (fraction of plate median); higher = more viable cells
- study conditions: 5 µM; treatment time 24 h; reporter: 7TFP
Lab note: cut-off is 1. Strictly less in cell viability is t. Exactly 1 or more is f.

Some solved cases for reference:
{"compound": "CC(=O)C1=C(CO)C(=O)c2cccc(O)c2C1=O", "assigned label": "f"}
{"compound": "C=C1C2CCC3(C)C(c4ccoc4)OC(=O)CC13OC1CC(=O)C(C)(C)C(CC(=O)OC)C12C (stereo not given)", "assigned label": "t"}

input: Problem: For the compound `O=c1c(-c2ccccc2)coc2cc(O)cc(O)c12` , is cell viability under 1?
output: t

input: Determine if `CC1=NN(c2ccccc2)C(=O)C1` shows cell viability strictly lower than 1.
output: f

input: API: query returns whether the compound falls strictly under 1 in cell viability. Query: `CC[N+](CC)(CC)CCOc1cccc(OCC[N+](CC)(CC)CC)c1OCC[N+](CC)(CC)CC`
output: t

input: Quick check: cell viability of Cc1cccc(CN2CCN(C(c3ccccc3)c3ccc(Cl)cc3)CC2)c1 (stereo not given) under 1?
output: f

input: Hello, I'm reviewing records and need to know if cell viability of `C[C@]12CCC(=O)C=C1CC[C@@H]1[C@@H]2[C@@H](O)C[C@@]2(C)[C@H]1CC[C@]2(O)C(=O)COP(=O)(O)O` is below 1. Could you check?
output: t

input: Identify whether the compound `C[C@H]1c2cccc(O)c2C(=O)C2=C(O)[C@]3(O)C(=O)C(C(N)=O)=C(O)[C@@H](N(C)C)[C@@H]3[C@@H](O)[C@@H]21` records cell viability below 1.
output: t

input: Strictly below 1 in cell viability? `COc1cc2c(cc1OC)[C@@H]1Cc3ccc(OC)c(OC)c3CN1CC2`
output: t

input: Could you please tell me whether cell viability recorded for `CCCCCCCCCCCCCCCCCCCCCCO` is less than 1?
output: f
